target: Human recombinant enteropeptidase (Homo sapiens, UniProt P98073); construct: purchased ITSI-Biosciences LLC #REN-260; assay: Human enteropeptidase inhibitory activity; type: biochemical; conditions: 3.3 μM test compound; fluorescence intensity at 2 hours after start of reaction; read-out: Inhibition rate at 3.3 μM
Sequence (P98073 whole entry): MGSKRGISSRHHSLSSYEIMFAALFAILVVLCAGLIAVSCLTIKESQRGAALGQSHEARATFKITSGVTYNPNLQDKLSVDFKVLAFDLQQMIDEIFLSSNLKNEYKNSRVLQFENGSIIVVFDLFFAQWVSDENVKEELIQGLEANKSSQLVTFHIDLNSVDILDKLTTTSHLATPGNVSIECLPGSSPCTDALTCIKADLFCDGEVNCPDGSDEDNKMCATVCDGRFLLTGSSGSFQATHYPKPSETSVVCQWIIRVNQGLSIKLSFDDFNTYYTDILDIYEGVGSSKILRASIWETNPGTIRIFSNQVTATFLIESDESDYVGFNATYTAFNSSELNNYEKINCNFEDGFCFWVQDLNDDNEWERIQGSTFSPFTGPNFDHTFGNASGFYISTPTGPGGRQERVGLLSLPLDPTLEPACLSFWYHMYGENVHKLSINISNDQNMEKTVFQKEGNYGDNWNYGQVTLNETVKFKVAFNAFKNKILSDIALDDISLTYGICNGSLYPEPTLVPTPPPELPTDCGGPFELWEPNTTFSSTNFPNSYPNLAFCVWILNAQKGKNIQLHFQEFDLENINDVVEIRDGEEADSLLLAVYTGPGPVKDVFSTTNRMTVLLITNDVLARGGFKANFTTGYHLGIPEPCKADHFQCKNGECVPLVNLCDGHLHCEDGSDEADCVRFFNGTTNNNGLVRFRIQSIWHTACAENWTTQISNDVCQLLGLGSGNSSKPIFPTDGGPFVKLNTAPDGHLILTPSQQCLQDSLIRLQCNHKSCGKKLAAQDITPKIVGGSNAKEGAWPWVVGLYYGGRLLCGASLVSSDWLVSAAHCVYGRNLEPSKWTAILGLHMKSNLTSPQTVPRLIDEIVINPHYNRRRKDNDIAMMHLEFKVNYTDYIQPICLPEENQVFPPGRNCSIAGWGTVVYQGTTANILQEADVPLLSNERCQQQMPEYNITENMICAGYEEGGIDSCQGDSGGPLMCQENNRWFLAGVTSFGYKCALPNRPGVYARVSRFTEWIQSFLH
Counter-ions that a name gives are not always drawn.
recorded-metric: inhibition at 3.3 µM (%)
Report as a plain number; the unit % is understood.

Item N=C(N)Nc1ccc(C(=O)Oc2cc3c(c(C(=O)NCS(=O)(=O)O)c2)CCO3)cc1 has what recorded inhibition at 3.3 µM?
101

Item N=C(N)Nc1ccc(C(=O)Oc2cc3c(c(C4=NOC(CC(=O)O)(C(=O)O)C4)c2)CCO3)cc1 (stereo not drawn) has what recorded inhibition at 3.3 µM?
101

Item N=C(N)Nc1ccc(C(=O)Oc2cc3c(c(C(=O)NCCCS(=O)(=O)O)c2)CCO3)cc1 has what recorded inhibition at 3.3 µM?
101

Item CC1(C)Cc2c(cc(OC(=O)c3ccc(NC(=N)N)cc3)cc2C2=NOC(CC(=O)O)(C(=O)O)C2)O1 (stereo not drawn) has what recorded inhibition at 3.3 µM?
100

Item N=C(N)Nc1ccc(C(=O)Oc2cc3c(c(C(=O)NCCS(=O)(=O)O)c2)CCO3)cc1 has what recorded inhibition at 3.3 µM?
101

Item N=C(N)Nc1ccc(C(=O)Oc2cc3c(c(C(=O)NCP(=O)(O)O)c2)CCO3)cc1 [Example 4, hydrochloride] has what recorded inhibition at 3.3 µM?
101
